system: T-47D breast; test: NCI tumour cell line growth inhibition, 48 h
parameterMeasured: TGI (µM)
Response body: numeric value in µM, unit text excluded.

Which measured TGI value corresponds to CCCCC[C@H]1C/C=C2/C(=O)C(Cl)=C[C@@H]2C/C=C\CCCC(=O)O[C@@H](CCCCC)C/C=C2/C(=O)C(Cl)=C[C@@H]2C/C=C\CCCC(=O)O1 ?
1.18

Nc1nc(Nc2cccc(F)c2)nc2ccccc12 , same question.
63

Now try Cc1cn2c(/C=N/N/C(N)=N\N)c(-c3ccc(Cl)c([N+](=O)[O-])c3)nc2s1 .
2.48

* * *

Consider the following compounds; for each one, report its TGI.
system: SK-OV-3 ovarian; test: NCI tumour cell line growth inhibition, 48 h

What reported TGI corresponds to CC1=CCS(=O)(=O)C1C(O)C1=C(C)CCCC1(C)C (stereo not drawn) on SK-OV-3 ovarian?
> 100 µM

What do you get for Cc1cccc(C)c1NC(=O)CCCC(=O)C1CC(=O)CCC1=O (stereo not drawn) ?
> 100 µM

Param item: CCCCCCCC(=O)N/N=C/c1ccc(Sc2nccn2C)c([N+](=O)[O-])c1
> 100 µM

* * *

system: BT-549 breast; experiment: NCI tumour cell line growth inhibition, 48 h
parameterMeasured: TGI

Which measured TGI value corresponds to O=C(O)C/C(=C\c1ccccc1)C(=O)O ?
> 100 µM

One more compound: CCOC(=O)C(NC(=O)NC(C(=O)OCC)C(=O)OCC)C(=O)OCC
> 100 µM

Query CO[C@@H](c1ccccc1)[C@H](O)[C@](O)(c1ccccc1)P(=O)(OC)OC next
> 100 µM

Next record, please: N=c1oc2ccc(Cl)cc2cc1C(=O)Nc1ccccc1
> 100 µM

What do you have for Nc1nc(OCc2ccccc2)nc2[nH]ncc12 ?
54.8 µM

Now this one: Cc1ccc2c(c1)ncn2-c1ncnc2c1CC(C)c1ccccc1N2C (stereo unspecified)
8.25 µM

Also check CC(C)(C)OC(=O)CN1CCNCCN(CC(=O)OC(C)(C)C)CC1
> 100 µM

What about Nc1nc(Nc2cccc(F)c2)nc2ccccc12 ?
> 100 µM

Same question for C/C(=N\NC(N)=O)C(CN(C)C)C(c1ccccc1)c1c(O)c2ccccc2oc1=O (stereo unspecified) please.
> 100 µM

Lookup CN(/N=C/c1cccs1)c1ccc([N+](=O)[O-])cc1[N+](=O)[O-]
> 100 µM

And CSCC[C@H]1C(=O)N=C(N)N1C(=O)OCc1ccccc1 ?
60.9 µM

And the next one, NCCCc1ccc2oc3ccccc3c2c1 ?
37.2 µM

Ok, now COc1ccc(NCC(=O)Nn2c(C)nc3ccc(S(=O)(=O)Nc4ccc(OC)cc4)cc3c2=O)cc1
> 100 µM

Try this compound too: Cc1nnc2sc(-c3ccc(-c4ccccc4Cl)o3)nn12
60.3 µM

Would you kindly repeat that for O=C(O)c1cc2c(s1)C(=O)c1sccc1C2=O ?
3.78 µM

// repeat for O=C(NN1C(=O)CSC1c1ccc(Cl)cc1)c1[nH]c2ccc(F)cc2c1-c1ccccc1 (stereo unspecified) and report
5.37 µM

Here is the next compound: Cc1cc(NS(=O)(=O)c2ccc(Nc3c4ccccc4nc4ccc(C(=O)Nc5ccc(S(=O)(=O)N=C(N)N)cc5)cc34)cc2)no1
> 100 µM

Another compound to look at: CSc1c(C(=O)Nc2ccc(Cl)cc2)c(N)[nH]c(=O)c1C#N
> 91.1 µM

What do we get for Cc1cc(C2(c3cc(C)c(O)c(C(=O)O)c3)OS(=O)(=O)c3ccccc32)cc(C(=O)O)c1O ?
> 100 µM

And COc1cc(/C=C/C2=NN(c3cccc(S(=O)(=O)O)c3)C3(C2)C(Cl)C(=O)N3c2nc3ccccc3s2)ccc1O (stereo unspecified) ?
29.1 µM

And what about the compound Nc1nnc(-c2ccco2)c(-c2ccco2)n1 ?
> 100 µM
